Tested on: LCLC-103H (Non-Small Cell Lung Carcinoma)
assay_text: Bliss excess, mean over the matrix (fraction); higher = more synergy;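 note: after 72 h of two-drug dosing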
Think of -0.01 as a floor: if Bliss excess stands on it or above, it is rule met; beneath it, rule not met.

molecule="COc1cc2ncnc(Nc3ccc(F)c(Cl)c3)c2cc1OCCCN1CCOCC1 [Gefitinib] + CC(C)n1c(=O)n(C)c2cnc3cc(F)c(-c4ccc(OCCCN5CCCCC5)nc4)cc3c21 [AZD1390] (first compound max 10 µM, 7x7, partner max 0.3 µM)" assigned_class="rule not met"
molecule="C[C@@H](Nc1cc(F)cc(F)c1)c1cc(C(=O)N(C)C)cc2c(=O)cc(N3CCOCC3)oc12 [AZD8186] + C1CN(CCC1(C(=O)N[C@@H](CCO)C2=CC=C(C=C2)Cl)N)C3=NC=NC4=C3C=CN4 [AZD5363] (first compound max 10 µM, 7x7, partner max 10 µM)" assigned_class="rule not met"
molecule="CN(C)CCCOc1ccc(-c2ccc3ncc4c(c3c2)n(C2CCOCC2)c(=O)n4C)cn1 [AZD0156] + CCN(CCO)CCCOc1ccc2c(Nc3cc(CC(=O)Nc4cccc(F)c4)[nH]n3)ncnc2c1 [AZD2811] (first compound max 1 µM, 7x7, partner max 1 µM)" assigned_class="rule not met"
molecule="CC(=O)c1c(C)c2cnc(Nc3ccc(N4CCNCC4)cn3)nc2n(C2CCCC2)c1=O [Palbociclib] + CC1(C)CCC(CN2CCN(c3ccc(C(=O)NS(=O)(=O)c4ccc(NCC5CCOCC5)c([N+](=O)[O-])c4)c(Oc4cnc5[nH]ccc5c4)c3)CC2)=C(c2ccc(Cl)cc2)C1 [Venetoclax] (first compound max 10 µM, 7x7, partner max 1 µM)" assigned_class="rule met"
molecule="O=C(c1cc(Cc2n[nH]c(=O)c3ccccc23)ccc1F)N1CCN(C(=O)C2CC2)CC1 [Olaparib] + CC1(C)CCC(CN2CCN(c3ccc(C(=O)NS(=O)(=O)c4ccc(NCC5CCOCC5)c([N+](=O)[O-])c4)c(Oc4cnc5[nH]ccc5c4)c3)CC2)=C(c2ccc(Cl)cc2)C1 [Venetoclax] (first compound max 10 µM, 7x7, partner max 1 µM)" assigned_class="rule not met"
molecule="NC1(C(=O)N[C@@H](CCO)c2ccc(Cl)cc2)CCN(c2ncnc3[nH]ccc23)CC1 [Capivasertib] + C[C@@H]1COCCN1C2=NC(=NC(=C2)C3(CC3)[S@](=N)(=O)C)C4=C5C=CNC5=NC=C4 [AZD6738] (first compound max 10 µM, 7x7, partner max 10 µM)" assigned_class="rule not met"
molecule="COc1cccc2c1C(=O)c1c(O)c3c(c(O)c1C2=O)C[C@@](O)(C(=O)CO)C[C@@H]3O[C@H]1C[C@H](N)[C@H](O)[C@H](C)O1 [Doxorubicin] + Cc1cc2ncnn2cc1Nc1ncc2c(n1)n(C1CCOCC1)c(=O)n2C [AZD7648] (first compound max 1 µM, 7x7, partner max 10 µM)" assigned_class="rule met"

---

System: T84 (Colorectal Carcinoma)
assay_text: Bliss excess, mean over the matrix (fraction); higher = more synergy
# Bliss excess annotations
quantity: Bliss excess

compound="COc1cccc(OCCCN)c1-c1cc(Nc2cnc(C#N)cn2)n[nH]1 [Prexasertib] + CCc1c2c(nc3ccc(O)cc13)-c1cc3c(c(=O)n1C2)COC(=O)[C@]3(O)CC [SN-38] (first compound max 1 µM, 7x7, partner max 0.3 µM)" assay_value=0.0636
compound="Cc1c2c(nn1C)CSCc1cc(n(C)n1)CSc1cc(c3ccccc3c1)OCCCc1c(C(=O)O)n(C)c3c-2c(Cl)ccc13 [AZD5991] + C[C@@H]1COCCN1C2=NC(=NC(=C2)C3(CC3)[S@](=N)(=O)C)C4=C5C=CNC5=NC=C4 [AZD6738] (first compound max 1 µM, 7x7, partner max 10 µM)" assay_value=-0.0127
compound="C[C@@H](c1ccc2nccn2c1)n1nnc2ncc(-c3cnn(C)c3)nc21 [Savolitinib] + CC1(C)CCC(CN2CCN(c3ccc(C(=O)NS(=O)(=O)c4ccc(NCC5CCOCC5)c([N+](=O)[O-])c4)c(Oc4cnc5[nH]ccc5c4)c3)CC2)=C(c2ccc(Cl)cc2)C1 [Venetoclax] (first compound max 1 µM, 7x7, partner max 1 µM)" assay_value=-0.0649
compound="COc1cc2ncnc(Nc3ccc(F)c(Cl)c3)c2cc1OCCCN1CCOCC1 [Gefitinib] + CC(C)n1c(=O)n(C)c2cnc3cc(F)c(-c4ccc(OCCCN5CCCCC5)nc4)cc3c21 [AZD1390] (first compound max 10 µM, 7x7, partner max 0.3 µM)" assay_value=-0.035
compound="CC1(C)CCC(CN2CCN(c3ccc(C(=O)NS(=O)(=O)c4ccc(NCC5CCOCC5)c([N+](=O)[O-])c4)c(Oc4cnc5[nH]ccc5c4)c3)CC2)=C(c2ccc(Cl)cc2)C1 [Venetoclax] + CCN(CCO)CCCOc1ccc2c(Nc3cc(CC(=O)Nc4cccc(F)c4)[nH]n3)ncnc2c1 [AZD2811] (first compound max 1 µM, 7x7, partner max 1 µM)" assay_value=-0.0249
compound="CCc1c2c(nc3ccc(O)cc13)-c1cc3c(c(=O)n1C2)COC(=O)[C@]3(O)CC [SN-38] + CN(C)CCCOc1ccc(-c2ccc3ncc4c(c3c2)n(C2CCOCC2)c(=O)n4C)cn1 [AZD0156] (first compound max 0.3 µM, 7x7, partner max 1 µM)" assay_value=0.108
compound="Cc1c2c(nn1C)CSCc1cc(n(C)n1)CSc1cc(c3ccccc3c1)OCCCc1c(C(=O)O)n(C)c3c-2c(Cl)ccc13 [AZD5991] + CC(=O)O[C@H]1C(=O)[C@@]2(C)[C@H]([C@H](OC(=O)c3ccccc3)[C@]3(O)C[C@H](OC(=O)[C@H](O)[C@@H](NC(=O)c4ccccc4)c4ccccc4)C(C)=C1C3(C)C)[C@]1(OC(C)=O)CO[C@@H]1C[C@@H]2O [Paclitaxel] (first compound max 1 µM, 7x7, partner max 3 µM)" assay_value=-0.0379
compound="Cc1c2c(nn1C)CSCc1cc(n(C)n1)CSc1cc(c3ccccc3c1)OCCCc1c(C(=O)O)n(C)c3c-2c(Cl)ccc13 [AZD5991] + C1CN(CCC1(C(=O)N[C@@H](CCO)C2=CC=C(C=C2)Cl)N)C3=NC=NC4=C3C=CN4 [Capivasertib] (first compound max 1 µM, 7x7, partner max 3 µM)" assay_value=-0.0185

Where do these numbers come from? They come from the supplement of paper PMC11061612.
